- Tested on: DMS-273
- method description: Tested for cytotoxicity against DMS 273 (small-cell lung cancer) cell line.
- Format: functional, Homo sapiens
experimental endpoint: GI50 (nM)

[
  {
    "item smiles": "COc1cc(CNc2ccc(SC)cc2)cc(OC)c1OC",
    "tested on": "DMS-273",
    "result number": 4910
  }
]

###

- Test system: OVCAR-3
- method description: Tested for cytotoxicity against OVCAR-3 (ovarian cancer) cell line.
- Type: functional, Homo sapiens
- measurement conditions: Homo sapiens, OVCAR-3
Catalogue of compounds with associated GI50
experimental endpoint: GI50

[
  {
    "item smiles": "CCCc1ccc(/N=C/c2cc(OC)c(OC)c(OC)c2)cc1",
    "result": "> 100 µM"
  },
  {
    "item smiles": "COc1cc(/C=N/c2ccc(C(C)C)cc2)cc(OC)c1OC",
    "result": "> 100 µM"
  },
  {
    "item smiles": "CCc1ccc(NCc2cc(OC)c(OC)c(OC)c2)cc1",
    "result": "0.283 µM"
  }
]

###

- Test system: COLO 205
- method description: Tested for cytotoxicity against COLO 205 (colon cancer) cell line.
- Assay type: functional, Homo sapiens
hey, just use 1 if measured GI50 is less than 2000 nM, otherwise -1

[
  {
    "item smiles": "CCc1ccc(NCc2cc(OC)c(OC)c(OC)c2)cc1",
    "class assignment": 1
  },
  {
    "item smiles": "CCOc1ccc(NCc2cc(OC)c(OC)c(OC)c2)cc1",
    "class assignment": 1
  },
  {
    "item smiles": "COc1cc(CNc2ccc(SC)cc2)cc(OC)c1OC",
    "class assignment": -1
  }
]

###

Listed here: items and their measured IC50.
- tested on: Tubulin (Bos taurus, UniProt Q6B856+Q862F3)
- Sequence (Q6B856 whole entry): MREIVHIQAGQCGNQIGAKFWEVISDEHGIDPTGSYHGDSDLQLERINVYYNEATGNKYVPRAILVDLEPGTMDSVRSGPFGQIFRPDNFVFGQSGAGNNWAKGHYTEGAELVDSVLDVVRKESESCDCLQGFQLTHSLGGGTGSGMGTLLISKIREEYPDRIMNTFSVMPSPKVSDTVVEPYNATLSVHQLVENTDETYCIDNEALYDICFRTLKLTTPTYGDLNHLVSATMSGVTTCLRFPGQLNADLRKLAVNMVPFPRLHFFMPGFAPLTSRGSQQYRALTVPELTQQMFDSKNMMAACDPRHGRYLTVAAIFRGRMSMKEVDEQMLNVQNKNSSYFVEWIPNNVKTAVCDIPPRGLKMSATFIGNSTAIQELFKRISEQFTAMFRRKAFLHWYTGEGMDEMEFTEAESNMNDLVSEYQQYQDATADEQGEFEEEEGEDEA
- Sequence (Q862F3 whole entry): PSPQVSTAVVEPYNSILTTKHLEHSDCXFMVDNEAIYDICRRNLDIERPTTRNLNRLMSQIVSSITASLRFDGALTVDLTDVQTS
- method description: In vitro inhibition of bovine electrophoretically homogeneous tubulin polymerization.

[
  {
    "item smiles": "COc1ccc(NCc2cc(OC)c(OC)c(OC)c2)cc1",
    "qualifier sign": "=",
    "IC50 / µM": 8.9
  },
  {
    "item smiles": "CCc1ccc(/N=C/c2cc(OC)c(OC)c(OC)c2)cc1",
    "qualifier sign": ">",
    "IC50 / µM": 40
  },
  {
    "item smiles": "COc1ccc(/N=C/c2cc(OC)c(OC)c(OC)c2)cc1",
    "qualifier sign": ">",
    "IC50 / µM": 40
  },
  {
    "item smiles": "CCOc1ccc(NCc2cc(OC)c(OC)c(OC)c2)cc1",
    "qualifier sign": "=",
    "IC50 / µM": 12
  },
  {
    "item smiles": "CCc1ccc(NCc2cc(OC)c(OC)c(OC)c2)cc1",
    "qualifier sign": "=",
    "IC50 / µM": 3
  },
  {
    "item smiles": "COc1cc(CNc2ccc(C(C)C)cc2)cc(OC)c1OC",
    "qualifier sign": ">",
    "IC50 / µM": 40
  }
]

###

Documented GI50 across a set of compounds
- Test system: CAKI-1
- method description: Tested for cytotoxicity against CAKI-1 renal cancer
- Assay type: functional, Homo sapiens
- measurement conditions: Homo sapiens, CAKI-1
experimental endpoint: GI50 (µM)

[
  {
    "item smiles": "COc1cc(CNc2ccc(C)cc2)cc(OC)c1OC",
    "tested on": "CAKI-1",
    "qualifier sign": "=",
    "result number": 0.192
  },
  {
    "item smiles": "COc1cc(CNc2ccc(SC)cc2)cc(OC)c1OC",
    "tested on": "CAKI-1",
    "qualifier sign": "=",
    "result number": 32
  },
  {
    "item smiles": "CCCc1ccc(/N=C/c2cc(OC)c(OC)c(OC)c2)cc1",
    "tested on": "CAKI-1",
    "qualifier sign": ">",
    "result number": 100
  }
]

Value source: ChEMBL document CHEMBL1126805
